Data credit: patent US8343475B2

Test system: MCP-3 release by human PBMC
Test: Chemokine induction in PBMC (capture ELISA)
Assay type: cell-based
Details: 100 μg/ml peptide, background (6) subtracted
Residues, ends and D or L forms follow the SMILES beside them.
# key: entry, value: Chemokine induction MCP-3

Sample records with Chemokine induction MCP-3:
| compound | endpointLabel | measuredValue |
| --- | --- | --- |
| CC[C@H](C)[C@H](NC(=O)[C@H](Cc1c[nH]c2ccccc12)NC(=O)[C@H](CCCCN)NC(=O)[C@H](Cc1c[nH]c2ccccc12)NC(=O)[C@H](Cc1c[nH]c2ccccc12)NC(=O)[C@H](CCCNC(=N)N)NC(=O)[C@@H](N)CCCCN)C(=O)N[C@@H](CCCNC(=N)N)C(=O)N[C@@H](Cc1c[nH]c2ccccc12)C(N)=O [HHC10, KRWWKWIRW] (H-KRWWKWIRW-NH2; N-terminus assumed) | Chemokine induction MCP-3 | 49 pg/mL |
| CC[C@H](C)[C@H](NC(=O)[C@H](CCCCN)NC(=O)[C@H](Cc1c[nH]c2ccccc12)NC(=O)[C@@H](N)CCCCN)C(=O)N[C@@H](Cc1ccccc1)C(=O)N[C@@H](CCCNC(=N)N)C(=O)N[C@@H](CCCNC(=N)N)C(=O)N[C@@H](Cc1c[nH]c2ccccc12)C(=O)N[C@@H](Cc1c[nH]c2ccccc12)C(N)=O [HHC71, KWKIFRRWW] (H-KWKIFRRWW-NH2; N-terminus assumed) | Chemokine induction MCP-3 | 2 pg/mL |
| CC[C@H](C)[C@H](NC(=O)[C@H](CC(N)=O)NC(=O)[C@H](CCCCN)NC(=O)[C@H](Cc1ccccc1)NC(=O)[C@H](CCCNC(=N)N)NC(=O)[C@H](Cc1c[nH]c2ccccc12)NC(=O)[C@H](C)N)C(=O)N[C@@H](CCCNC(=N)N)C(=O)N[C@@H](CCCCN)C(N)=O [HHC126, AWRFKNIRK] (H-AWRFKNIRK-NH2; N-terminus assumed) | Chemokine induction MCP-3 | 0 pg/mL |
| CC[C@H](C)[C@H](NC(=O)[C@H](CCCNC(=N)N)NC(=O)[C@H](Cc1ccccc1)NC(=O)[C@H](CCC(N)=O)NC(=O)[C@@H](N)CCCCN)C(=O)N[C@@H](CCCNC(=N)N)C(=O)N[C@H](C(=O)N[C@@H](CCCNC(=N)N)C(=O)N[C@H](C(=O)N[C@H](C(=O)N[C@@H](CCCNC(=N)N)C(=O)N[C@@H](CCCCN)C(N)=O)[C@@H](C)CC)C(C)C)C(C)C [HH12, KQFRIRVRVIRK] (H-KQFRIRVRVIRK-NH2; N-terminus assumed) | Chemokine induction MCP-3 | 21 pg/mL |
| CC[C@H](C)[C@H](N)C(=O)N[C@@H](Cc1c[nH]c2ccccc12)C(=O)N[C@@H](Cc1c[nH]c2ccccc12)C(=O)N[C@@H](CCCCN)C(=O)N[C@@H](Cc1c[nH]c2ccccc12)C(=O)N[C@@H](CCCNC(=N)N)C(=O)N[C@@H](CCCNC(=N)N)C(=O)N[C@@H](Cc1c[nH]c2ccccc12)C(=O)N[C@H](C(N)=O)C(C)C [HHC77, IWWKWRRWV] (H-IWWKWRRWV-NH2; N-terminus assumed) | Chemokine induction MCP-3 | 23 pg/mL |

Note to self: Chemokine induction MCP-3 recorded for CC(C)[C@H](NC(=O)[C@H](CCCNC(=N)N)NC(=O)[C@H](Cc1ccccc1)NC(=O)[C@H](CCCNC(=N)N)NC(=O)[C@H](Cc1ccccc1)NC(=O)[C@H](CCCNC(=N)N)NC(=O)[C@H](Cc1ccccc1)NC(=O)[C@H](CCC(N)=O)NC(=O)[C@@H](N)Cc1c[nH]cn1)C(=O)N[C@@H](CCCNC(=N)N)C(=O)N[C@@H](CCCNC(=N)N)C(=O)N[C@@H](CCCCN)C(N)=O [HH13, HQFRFRFRVRRK] (H-HQFRFRFRVRRK-NH2; N-terminus assumed) was 54 pg/mL

Value of measured Chemokine induction MCP-3 for the entry CC[C@H](C)[C@H](NC(=O)[C@H](CCCCN)NC(=O)[C@H](Cc1c[nH]c2ccccc12)NC(=O)[C@H](Cc1c[nH]c2ccccc12)NC(=O)[C@H](CCCNC(=N)N)NC(=O)[C@@H](N)Cc1c[nH]c2ccccc12)C(=O)N[C@@H](Cc1c[nH]c2ccccc12)C(=O)N[C@@H](CCCCN)C(=O)N[C@@H](CCCNC(=N)N)C(N)=O [HHC20, WRWWKIWKR] (H-WRWWKIWKR-NH2; N-terminus assumed) : 12 pg/mL

Noted for CC[C@H](C)[C@H](N)C(=O)N[C@@H](Cc1c[nH]c2ccccc12)C(=O)N[C@H](C(=O)N[C@H](C(=O)N[C@@H](Cc1c[nH]c2ccccc12)C(=O)N[C@@H](CCCNC(=N)N)C(=O)N[C@@H](CCCNC(=N)N)C(N)=O)[C@@H](C)CC)C(C)C [HH18, IWVIWRR-NH2] (H-IWVIWRR-NH2; N-terminus assumed) : its Chemokine induction MCP-3 reads 431 pg/mL

Lab note: measured Chemokine induction MCP-3 of N=C(N)NCCC[C@H](NC(=O)[C@H](CCCNC(=N)N)NC(=O)[C@H](CCCCN)NC(=O)[C@H](Cc1c[nH]c2ccccc12)NC(=O)[C@H](Cc1c[nH]c2ccccc12)NC(=O)[C@H](CCCCN)NC(=O)[C@H](CCCCN)NC(=O)[C@@H](N)Cc1c[nH]c2ccccc12)C(=O)N[C@@H](Cc1c[nH]c2ccccc12)C(N)=O [HHC48, WKKWWKRRW] (H-WKKWWKRRW-NH2; N-terminus assumed) was -1 pg/mL

For CC[C@H](C)[C@H](NC(=O)[C@H](Cc1c[nH]c2ccccc12)NC(=O)[C@H](CCCCN)NC(=O)[C@@H](N)CCCNC(=N)N)C(=O)N[C@@H](Cc1c[nH]c2ccccc12)C(=O)N[C@@H](CCCNC(=N)N)C(=O)N[C@@H](Cc1c[nH]c2ccccc12)C(=O)N[C@@H](Cc1ccccc1)C(=O)N[C@@H](CC(C)C)C(N)=O [HHC75, RKWIWRWFL] (H-RKWIWRWFL-NH2; N-terminus assumed) the compound record lists Chemokine induction MCP-3 as 322 pg/mL
